tested on: Plasmodium falciparum; experiment: Calibr Malaria Delayed Death Assay SOP; format: functional, organism-based; set-up: scale not given: in the data most compounds retested in dose-response had high values; conditions: concentration 4.99e-06 (unit not given; other assays of the set use mol/L)
Hit rate of the full screen: of about 38,000 compounds, about 1,200 (3.2%) showed an effect of 50% or more. The median lay at about -58%. Many of the other results were omitted from the sample, so strong results are more common in it than they were.
Overview of recorded Percent Effect for various molecules

These solved cases illustrate the format of a correct answer.
INSERT INTO results (molecule, measurement_label, readout_value) VALUES
  ('O=C(Nc1cccc(OCC(F)F)n1)c1ccncc1F', 'Percent Effect', '-156.1%'),
  ('NC(=O)[C@H]1CCCN(c2nccc(-c3c[nH]nc3-c3cccnc3)n2)C1', 'Percent Effect', '-58.34%'),
  ('Cc1csc2ncc(-c3ccnc(N4CCC[C@@H]4CO)n3)c(=O)n12', 'Percent Effect', '-191.9%'),
  ('O=C(C1CCCO1)N1CCC2(CC1)COCCN2CC1CC1 (stereo unspecified)', 'Percent Effect', '-162.7%'),
  ('CN1CCCN(c2nccc(-c3cc(C(=O)O)ccn3)n2)CC1', 'Percent Effect', '-114.4%'),
  ('Cc1ncc2c(n1)CN(CC(=O)Nc1cc(C)on1)CC2', 'Percent Effect', '-14.27%');

Qu. May I ask what Percent Effect has been recorded for CC(O)CN1CCN(C(=O)CCOC(C)C)CC1 (stereo unspecified) ?
Ans. -34.58%

Qu. Entry under review: Cc1ccccc1-n1cc(-c2ccnc(NC(CO)C(C)C)n2)cn1 (stereo unspecified) . Reported Percent Effect?
Ans. 25.15%

Qu. Reported Percent Effect for CC(C)[C@H](CO)Nc1nccc(-c2c[nH]nc2-c2ccncc2)n1 : what is it?
Ans. 83.09%

Qu. Item c1cc(-c2n[nH]cc2-c2ccnc(N3CCCC3)n2)ccn1 has what recorded Percent Effect?
Ans. 80.23%

Qu. Value lookup for Percent Effect; key = Cc1[nH]c2ccccc2c1-c1ccnc(N[C@@H](CO)C(C)C)n1
Ans. -14.55%

The origin of these recorded values is ChEMBL document CHEMBL3988442.
